- target system: CCR-3 (Homo sapiens, UniProt P51677)
- Sequence (P51677 whole entry): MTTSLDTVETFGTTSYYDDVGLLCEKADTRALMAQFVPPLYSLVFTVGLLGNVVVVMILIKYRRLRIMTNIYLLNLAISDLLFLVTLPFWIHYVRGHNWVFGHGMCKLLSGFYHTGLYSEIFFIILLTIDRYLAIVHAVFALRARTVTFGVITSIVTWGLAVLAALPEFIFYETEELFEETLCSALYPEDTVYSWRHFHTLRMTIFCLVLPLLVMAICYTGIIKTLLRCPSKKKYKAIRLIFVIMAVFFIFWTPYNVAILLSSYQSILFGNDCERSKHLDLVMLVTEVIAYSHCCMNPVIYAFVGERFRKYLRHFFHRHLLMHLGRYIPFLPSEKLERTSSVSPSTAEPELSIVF
- assay overview: Calcium mobilization assay (inhibition of eotaxin-induced intracellular calcium mobilization in CCR3/HEK293 cells)
- Assay type: cell-based
- Parameters: expressed in transfected cells
- test conditions: 6.25 µg/ml test compound; eotaxin 10 nM; CCR3/HEK293 cells (Table 2a)
reported metric: Ca^2+ mobilization 6.25 µg/ml (inhibition %)

>  <compound>
COc1ccc(CCN(CCCNC(=O)Nc2cccc(C)c2)CCCC(=O)O)cc1OC

>  <observed value>
54

$$$$
>  <compound>
O=C(O)CCCN(CCCNC(=O)Nc1ccc(Br)cc1)CCc1ccc(Cl)c(Cl)c1

>  <observed value>
63

$$$$
>  <compound>
O=C(O)CCCN(CCCNC(=O)Nc1cccc2ccccc12)Cc1ccc(C(F)(F)F)cc1

>  <observed value>
51

$$$$
>  <compound>
COc1ccc(CCN(CCCNC(=O)Nc2ccccc2-c2ccccc2)C[C@@H]2CCCN2)cc1OC

>  <observed value>
57

$$$$
>  <compound>
CCOC(=O)C1CC1CN(CCCNC(=O)Nc1ccccc1-c1ccccc1)CCc1ccc(C)cc1 (centres unmarked)

>  <observed value>
52

$$$$
>  <compound>
CC(C)CN(CCCNC(=O)Nc1ccccc1-c1ccccc1)CCc1ccc(Cl)c(Cl)c1

>  <observed value>
51

$$$$
>  <compound>
O=C(NCCCN(CCOCc1ccccc1)CCc1c[nH]cn1)Nc1ccc(Br)cc1

>  <observed value>
52

$$$$
>  <compound>
O=C(NCCCN(CCOCc1ccccc1)CCc1c[nH]cn1)Nc1cccc(Cl)c1

>  <observed value>
57

$$$$
>  <compound>
CCOC(=O)C1CC1CN(CCCNC(=O)Nc1ccc(Br)cc1)C1CCCc2ccccc21 (centres unmarked)

>  <observed value>
65

$$$$
>  <compound>
COC(=O)CCCN(CCCNC(=O)Nc1ccc(Cl)c(Cl)c1)Cc1ccc2c(c1)OCO2

>  <observed value>
58

$$$$
>  <compound>
COc1cc(CN(CCCNC(=O)Nc2ccc(Br)cc2)CCC(C)C)cc(OC)c1OC

>  <observed value>
52

$$$$
>  <compound>
CSCCCN(CCCNC(=O)Nc1ccc(Br)cc1)Cc1ccc(C(F)(F)F)cc1

>  <observed value>
51

$$$$
>  <compound>
Cc1cccc(NC(=O)NCCCN(CCc2ccc(Cl)c(Cl)c2)C[C@@H]2CCCN2)c1

>  <observed value>
64

$$$$
>  <compound>
Cc1cccc(NC(=O)NCCCN(C[C@@H]2CCCN2)C2CCCc3ccccc32)c1 (some centres unmarked)

>  <observed value>
57

$$$$
>  <compound>
O=C(NCCCN(CCOCc1ccccc1)C1CCCc2ccccc21)Nc1ccc(Br)cc1 (centres unmarked)

>  <observed value>
53

$$$$
>  <compound>
CSCCCN(CCCNC(=O)Nc1ccccc1-c1ccccc1)Cc1ccc2c(c1)OCO2

>  <observed value>
53

$$$$

----------
Entries and their inhibition at 10 µM
- target system: CCR-3 (Homo sapiens, UniProt P51677)
- assay overview: Eotaxin-induced chemotaxis of CCR-3 transfectant cells (CCR3/U937)
- Type: cell-based
- Parameters: expressed in transfected cells; host or cells: U937
- test conditions: U-937; 10 µM test compound; eotaxin 1 x 10^-9 M; CCR3/U937 cells (Table 3a)

>  <molecule>
O=C(O)CCCN(CCCNC(=O)Nc1ccc(Cl)c(Cl)c1)C1CCCc2ccccc21 (centres unmarked)

>  <inhibition at 10 µM, %>
100

$$$$
>  <molecule>
CCN(CCCNC(=O)Nc1ccccc1OC)CCc1ccc(Cl)cc1

>  <inhibition at 10 µM, %>
100

$$$$
>  <molecule>
COC(=O)CCCN(CCCNC(=O)Nc1ccc(Br)cc1)CCc1ccc(OC)c(OC)c1

>  <inhibition at 10 µM, %>
50

$$$$
>  <molecule>
O=C(O)CCCN(CCCNC(=O)Nc1ccc(Cl)cc1)C1CCCc2ccccc21 (centres unmarked)

>  <inhibition at 10 µM, %>
100

$$$$
>  <molecule>
Cc1ccc(CN(CCCNC(=O)Nc2ccccc2)CCc2ccc(Cl)cc2)cc1

>  <inhibition at 10 µM, %>
40

$$$$
